System: Wolbachia pipientis
Assay: Anti-Wolbachia Cell-Based Screen
Assay type: functional
Design: scale not given: in the data most compounds retested in dose-response had high values
Details: 5 µM
In all, about 48,000 compounds went through this assay and about 13,000 (27%) showed an effect of 50% or more. The list shows a part of the results.
Readout type: Percent Effect
The reply must contain the numeric value and, after it, the unit.

Some compounds with known Percent Effect results, for comparison:
NS(=O)(=O)CCNC(=O)c1nnn(-c2ccccc2)c1C1CC1; -6.368%
Cc1cc(F)ccc1S(=O)(=O)N1C[C@@H](C)[C@@](C)(O)C1; 6.812%
CC(c1ccccc1)n1c(SCC(=O)O)nnc1-c1ccccc1Cl (stereo unspecified); 9.035%
Cc1ccc(NC(C)C(=O)NCc2cccs2)cc1Cl (stereo unspecified); -17.21%
CSCCC1c2nc[nH]c2CCN1Cc1ccccc1C(F)(F)F (stereo unspecified); -7.167%

Note: attention shifts to another entry.
Enquiry: Fill in the recorded Percent Effect for this compound, with Wolbachia pipientis as test system: CN1CCCN(c2nc3c(cnn3C(C)(C)C)c(=O)[nH]2)CC1
Return: -5.062%
